Recorded refractive index, one value per entry.
experiment: refractive index (Na D-line) (dimensionless); conditions: 298.15 K; 101.33 kPa; Liquid
endpoint name: refractive index

compound | endpoint name | observed
Cc1ccc(C)cc1 [1,4-dimethylbenzene] | refractive index | 1.4929
COc1ccccc1 [anisole] | refractive index | 1.5141
Cc1ccccc1 [toluene] | refractive index | 1.4944
Cc1cccc(C)c1 [1,3-dimethylbenzene] | refractive index | 1.4944
Cc1ccccc1C [1,2-dimethylbenzene] | refractive index | 1.5018
Cc1cc(C)cc(C)c1 [1,3,5-trimethylbenzene] | refractive index | 1.4976
c1ccccc1 [benzene] | refractive index | 1.4979

----------
details: 298.15 K; 101 kPa; Liquid
Assign Yes to entries whose mass density meets or exceeds 900 kg/m3; assign No to the rest.

compound smiles | group
Cc1ccccc1 | No
Cc1ccc(C)cc1 | No
Cc1cccc(C)c1 | No
COc1ccccc1 | Yes
Cc1cc(C)cc(C)c1 | No

----------
assay: refractive index (Na D-line) (dimensionless); settings: 303.15 K; 101.33 kPa; Liquid
The following molecules are listed with their measured refractive index values.

molecule | refractive index
Cc1cccc(C)c1 [1,3-dimethylbenzene] | 1.4925
Cc1ccc(C)cc1 [1,4-dimethylbenzene] | 1.4915
Cc1cc(C)cc(C)c1 [1,3,5-trimethylbenzene] | 1.4948
c1ccccc1 [benzene] | 1.4849
Cc1ccccc1C [1,2-dimethylbenzene] | 1.5
COc1ccccc1 [anisole] | 1.5117
Cc1ccccc1 [toluene] | 1.4918

----------
settings: 288.15 K; 101 kPa; Liquid
The threshold is 900 kg/m3. Values of mass density beneath it are tagged criterion met; values meeting or exceeding it are tagged criterion not met.

compound smiles | group
COc1ccccc1 | criterion not met
Cc1cccc(C)c1 | criterion met
Cc1ccccc1 | criterion met
Cc1cc(C)cc(C)c1 | criterion met
Cc1ccc(C)cc1 | criterion met

----------
Reported refractive index values for the following compounds.
experiment: refractive index (Na D-line) (dimensionless); details: 293.15 K; 101.33 kPa; Liquid
endpoint name: refractive index

compound smiles | observed
Cc1ccc(C)cc1 | 1.4958
Cc1cccc(C)c1 | 1.4973
c1ccccc1 | 1.5011
Cc1ccccc1 | 1.497
Cc1ccccc1C | 1.5047
Cc1cc(C)cc(C)c1 | 1.4993

----------
settings: 293.15 K; 101 kPa; Liquid
endpoint name: mass density (kg/m3)

compound smiles | observed
Cc1cccc(C)c1 | 864.05
Cc1ccc(C)cc1 | 860.92
c1ccccc1 | 876.53
COc1ccccc1 | 993.65
Cc1cc(C)cc(C)c1 | 865.07
Cc1ccccc1C | 879.08
Cc1ccccc1 | 866.87

----------
details: 303.15 K; 101 kPa; Liquid
Each entry below carries its reported mass density.

compound smiles | mass density / kg/m3
Cc1ccccc1 | 857.46
c1ccccc1 | 868.23
Cc1cc(C)cc(C)c1 | 856.95
COc1ccccc1 | 984.37
Cc1ccccc1C | 870.73
Cc1ccc(C)cc1 | 852.25
Cc1cccc(C)c1 | 855.47

----------
test: refractive index (Na D-line) (dimensionless); conditions: 288.15 K; 101.33 kPa; Liquid
endpoint name: refractive index

compound smiles | observed
Cc1cc(C)cc(C)c1 | 1.5045
Cc1ccccc1C | 1.5072
COc1ccccc1 | 1.5256
Cc1cccc(C)c1 | 1.4997
Cc1ccc(C)cc1 | 1.4983
Cc1ccccc1 | 1.4996
c1ccccc1 | 1.505
